Listed here are compounds together with their documented MDCK-MDR1: % Recov A-B.
- Tested on: MDR1-MDCK cell monolayers
- experiment: MDCK-MDR1 permeability assay (BBB penetration potential)
- Type: in vitro ADME
- testContext: dog, MDCK-MDR1, 120 min, 5 μM, pH 7.4
- Experimental: Each determination is performed in duplicate. […] Analytical conditions are outlined below.
Answer format: numeric, % implied, no suffix.

# compound, endpointValue
records = [
    ("C[C@@]12CC[C@@](C)(N1)[C@@H](F)[C@@H](Oc1ccc(-c3ccc(C#N)cc3O)nn1)C2 (single isomer, unassigned) [152-ENT2]", 92),
    ("Cc1nc(-c2ccc(-c3ccc(O[C@@H]4C[C@H]5CCC[C@H](N5)[C@@H]4F)nn3)c(O)c2)co1 (single isomer, unassigned) [92-ENT1]", 65),
]

Provide the documented MDCK-MDR1: % Recov A-B with MDR1-MDCK cell monolayers as the system for CNC(=O)c1ccc2cc(-c3ccc(O[C@H]4C[C@@H]5CCC[C@@H](N5)[C@H]4F)nn3)c(O)cc2n1 (single isomer, unassigned) [136-ENT1]
88

###

- Test system: MDR1
- experiment: MDCK-MDR1 permeability assay (BBB penetration potential)
- Assay type: in vitro ADME
- testContext: dog, MDCK-MDR1, pH 7.4, MDCK-MDR1: Papp B-A
// classify: if (Papp B→A at 120 min, 5 μM < 30 ×10⁻⁶ cm/s) yes else no

# compound, cat
measured = [
    ("Cn1cc(-c2ccc(-c3ccc(O[C@@H]4C[C@@H]5CCC[C@@H](N5)[C@H]4F)nn3)c(O)c2)cn1 (single isomer, unassigned)", "no"),
    ("Oc1cc(-c2ccc3cncn3c2)ccc1-c1ccc(O[C@H]2C[C@@H]3CCC[C@@H](N3)[C@H]2F)nn1 (single isomer, unassigned)", "yes"),
    ("Cn1cc(-c2cc(O)c(-c3ccc(O[C@@H]4C[C@H]5CCC[C@H](N5)[C@@H]4F)nn3)cc2F)cn1 (single isomer, unassigned)", "yes"),
    ("Cn1ccc2cc(-c3ccc(O[C@@H]4C[C@H]5CC[C@H](N5)[C@@H]4F)nn3)c(O)cc2c1=O (single isomer, unassigned)", "no"),
]

Regarding COc1cc(-c2ccc(-c3ccc(O[C@H]4C[C@]5(C)CC[C@@](C)(N5)[C@H]4F)nn3)c(O)c2)cnn1 (single isomer, unassigned) , kindly confirm whether its Papp B→A at 120 min, 5 μM is beneath 30 ×10⁻⁶ cm/s.
no

###

- Tested on: MDR1
- experiment: MDCK-MDR1 permeability assay (BBB penetration potential)
- Type: in vitro ADME
- testContext: dog, MDCK-MDR1, pH 7.4, MDCK-MDR1: Papp A-B
Classify on Papp A→B at 120 min, 5 μM using lowest (below 2 ×10⁻⁶ cm/s), middle (2 ×10⁻⁶ cm/s to below 6 ×10⁻⁶ cm/s), highest (6 ×10⁻⁶ cm/s or more)

Field: example entries. Status: answers known.
# compound, cat
measured = [
    ("Cn1cc(-c2ccc(-c3ccc(O[C@@H]4C[C@H]5CCC[C@H](N5)[C@@H]4F)nn3)c(O)c2)c(F)n1 (single isomer, unassigned)", "middle"),
    ("Oc1cc2ccncc2cc1-c1ccc(O[C@@H]2C[C@H]3CCC[C@H](N3)[C@@H]2F)nn1 (single isomer, unassigned)", "highest"),
    ("Cc1ncc(-c2ccc(-c3ccc(O[C@@H]4C[C@H]5CCC[C@H](N5)[C@@H]4F)nn3)c(O)c2)s1 (single isomer, unassigned)", "highest"),
    ("Cn1ccc(=O)c2cc(O)c(-c3ccc(O[C@H]4C[C@]5(C)CCC[C@@](C)(N5)[C@H]4F)nn3)cc21 (stereo in doubt) [132-ENT2]", "lowest"),
    ("N#Cc1ccc(-c2ccc(O[C@@H]3C[C@H]4CCC[C@H](N4)[C@@H]3F)nn2)c(O)c1 (single isomer, unassigned)", "middle"),
]

State the class of the compound shown: Oc1cc(-c2ccc3nncn3c2)ccc1-c1ccc(O[C@H]2C[C@@H]3CCC[C@@H](N3)[C@H]2F)nn1 (single isomer, unassigned)
lowest

Moving on to Cn1ccc(-c2cc(O)c(-c3ccc(O[C@H]4C[C@@H]5CCC[C@@H](N5)[C@H]4F)nn3)cc2F)cc1=O (single isomer, unassigned)
lowest

Moving on to Oc1cc(-c2nnco2)ccc1-c1ccc(O[C@H]2C[C@@H]3CC[C@@H](N3)[C@H]2F)nn1 (single isomer, unassigned)
highest

Moving on to Cn1cc(-c2ccc(-c3ccc(O[C@H]4C[C@@H]5CCC[C@@H](N5)[C@H]4F)nn3)c(O)c2F)cn1 (single isomer, unassigned)
highest

Moving on to O=c1cc(-c2ccc(-c3ccc(O[C@@H]4C[C@H]5CCC[C@H](N5)[C@@H]4F)nn3)c(O)c2)cc[nH]1 (single isomer, unassigned)
lowest

Moving on to O=c1cc(-c2cc(O)c(-c3ccc(O[C@@H]4C[C@H]5CCC[C@H](N5)[C@@H]4F)nn3)cc2F)cc[nH]1 (single isomer, unassigned)
lowest

Moving on to Cn1ccc2cc(-c3ccc(O[C@@H]4C[C@@]5(C)CCC[C@](C)(N5)[C@@H]4F)nn3)c(O)cc2c1=O (single isomer, unassigned)
middle
